Source listed as ChEMBL document CHEMBL1134857.

Catalogue of molecules with associated pIC50
Species: Rattus norvegicus
Experiment Summary: Inhibition of mitochondrial protein synthesis (MPS) in rat heart mitochondria
Assay type: functional
pIC50: −log10 of the molar value.
Experimental Endpoint: pIC50

>>> readout_value("CC(=O)NC[C@H]1CN(c2ccc(/C=C(\\Br)c3cccc(C#N)c3)c(F)c2)C(=O)O1")
4.62
>>> readout_value("CC(=O)NC[C@H]1CN(c2ccc(/C=C(\\Br)c3ccccc3C#N)c(F)c2)C(=O)O1")
4.44
>>> readout_value("CC(=O)NC[C@H]1CN(c2ccc(/C=C(\\F)c3cccc(C(C)=O)c3)c(F)c2)C(=O)O1")
4.16
>>> readout_value("CC(=O)NC[C@H]1CN(c2ccc(/C=C(\\F)c3cccnc3)c(F)c2)C(=O)O1")
5.80
>>> readout_value("CC(=O)NC[C@H]1CN(c2ccc(/C=C(\\Br)c3cccnc3)c(F)c2)C(=O)O1")
4.92
>>> readout_value("COC(=O)c1cccc(/C(Br)=C/c2ccc(N3C[C@H](CNC(C)=O)OC3=O)cc2F)c1")
3.82
>>> readout_value("CC(=O)NC[C@H]1CN(c2ccc(/C=C(\\Br)c3ccc(C#N)cc3)c(F)c2)C(=O)O1")
4.12
>>> readout_value("CC(=O)NC[C@H]1CN(c2ccc(/C=C(\\Br)c3cncc(C#N)c3)c(F)c2)C(=O)O1")
5.89
>>> readout_value("CC(=O)NC[C@H]1CN(c2ccc(/C=C(\\Br)c3cccc(C=O)c3)c(F)c2)C(=O)O1")
4.48
>>> readout_value("CC(=O)NC[C@H]1CN(c2ccc(/C=C(\\F)c3nnn(C)n3)c(F)c2)C(=O)O1")
5.31
>>> readout_value("CC(=O)NC[C@H]1CN(c2ccc(N3CCOCC3)c(F)c2)C(=O)O1")
4.92
>>> readout_value("CC(=O)NC[C@H]1CN(c2ccc(/C=C(\\Br)c3cccc(CO)c3)c(F)c2)C(=O)O1")
5.10
>>> readout_value("CC(=O)NC[C@H]1CN(c2ccc(/C=C/c3cncc(C#N)c3)c(F)c2)C(=O)O1")
5.03
>>> readout_value("CC(=O)NC[C@H]1CN(c2ccc(/C=C(\\F)c3cccc(C=O)c3)c(F)c2)C(=O)O1")
5.00
>>> readout_value("CC(=O)NC[C@H]1CN(c2ccc(/C=C(\\Br)c3c(C)oc[n+]3C)c(F)c2)C(=O)O1")
4.27
>>> readout_value("CC(=O)NC[C@H]1CN(c2ccc(/C=C(\\Br)c3ccncc3)c(F)c2)C(=O)O1")
4.85
>>> readout_value("CC(=O)NC[C@H]1CN(c2ccc(/C=C/c3cccnc3)c(F)c2)C(=O)O1")
5.11

----------
Consider the following compounds and their measured MIC readings.
Tested on: Streptococcus pneumoniae
Experiment Summary: Minimum inhibitory concentration measured against Streptococcus pneumoniae
Assay type: functional
Experimental Endpoint: MIC

>>> readout_value("CC(=O)NC[C@H]1CN(c2ccc(/C=C(\\Br)c3cncc(C#N)c3)c(F)c2)C(=O)O1")
"≤ 0.125 µg/mL"
>>> readout_value("CC(=O)NC[C@H]1CN(c2ccc(/C=C(\\Br)c3cccc(C=O)c3)c(F)c2)C(=O)O1")
"1 µg/mL"
>>> readout_value("CC(=O)NC[C@H]1CN(c2ccc(/C=C(\\Br)c3cccc(C(C)=O)c3)c(F)c2)C(=O)O1")
"1 µg/mL"
>>> readout_value("CC(=O)NC[C@H]1CN(c2ccc(/C=C(\\Br)c3ccncc3)c(F)c2)C(=O)O1")
"1 µg/mL"
